The reported numbers originate from patent US9630922B2.

Listed here are compounds together with their documented IC50.
# system_name: HDAC6 (Homo sapiens)
# Construct: Full length human recombinant HDAC6 protein was expressed in baculoviral system
# Sequence (Q9UBN7 whole entry): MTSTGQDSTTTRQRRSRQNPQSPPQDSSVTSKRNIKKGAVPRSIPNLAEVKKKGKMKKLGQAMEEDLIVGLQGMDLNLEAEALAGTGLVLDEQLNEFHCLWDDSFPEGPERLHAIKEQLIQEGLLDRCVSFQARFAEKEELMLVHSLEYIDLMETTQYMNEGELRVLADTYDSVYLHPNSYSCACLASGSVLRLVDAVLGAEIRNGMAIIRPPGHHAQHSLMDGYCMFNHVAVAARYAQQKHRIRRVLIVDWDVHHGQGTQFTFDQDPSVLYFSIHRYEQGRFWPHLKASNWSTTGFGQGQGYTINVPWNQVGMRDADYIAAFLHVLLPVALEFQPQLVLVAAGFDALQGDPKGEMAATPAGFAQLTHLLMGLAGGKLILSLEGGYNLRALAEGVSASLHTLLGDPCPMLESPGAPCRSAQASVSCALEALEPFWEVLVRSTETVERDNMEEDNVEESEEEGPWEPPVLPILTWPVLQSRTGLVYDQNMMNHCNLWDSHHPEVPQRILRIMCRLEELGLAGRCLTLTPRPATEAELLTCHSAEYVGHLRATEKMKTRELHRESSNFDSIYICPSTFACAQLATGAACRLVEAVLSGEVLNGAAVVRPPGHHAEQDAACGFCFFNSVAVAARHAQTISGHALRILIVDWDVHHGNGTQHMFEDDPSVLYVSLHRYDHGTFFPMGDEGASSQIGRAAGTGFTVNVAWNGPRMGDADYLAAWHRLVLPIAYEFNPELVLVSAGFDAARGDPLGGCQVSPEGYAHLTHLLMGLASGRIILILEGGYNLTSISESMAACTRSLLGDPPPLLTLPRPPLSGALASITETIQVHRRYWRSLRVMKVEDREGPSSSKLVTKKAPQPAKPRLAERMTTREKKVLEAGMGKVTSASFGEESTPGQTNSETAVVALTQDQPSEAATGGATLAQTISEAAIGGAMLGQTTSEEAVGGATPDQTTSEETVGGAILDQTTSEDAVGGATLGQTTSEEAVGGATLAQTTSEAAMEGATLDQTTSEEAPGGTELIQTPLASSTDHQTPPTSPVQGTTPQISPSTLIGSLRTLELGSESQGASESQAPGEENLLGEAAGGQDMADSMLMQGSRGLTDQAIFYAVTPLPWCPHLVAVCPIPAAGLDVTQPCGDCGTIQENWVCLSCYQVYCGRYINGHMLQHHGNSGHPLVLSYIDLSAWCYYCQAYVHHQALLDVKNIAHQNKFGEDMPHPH
# assay_procedure: In vitro Histone Deacetylase Assay (enzymatic HDAC6 electrophoretic mobility shift assay)
# measurement_conditions: full length human recombinant HDAC6, 1 nM enzyme, 2 μM peptide substrate RHKK(Ac)-NH2, 25° C.; read-out: HDAC6 activity range

1. O=C(NO)c1ccc2c(c1)CC[C@@]1(CCN(Cc3ccc4ccccc4c3)C1=O)C2 [Compound I-86] ... ≤ 100 nM

Next, consider the following compound.
# input Any idea what IC50 was measured for O=C(NO)c1ccc2c(c1)CC[C@@]1(CCN(c3cccc(F)c3F)C1=O)C2 [Compound I-156] ?
# output ≤ 100 nM
